# experimental target: Cyclin-dependent kinase 4 (Homo sapiens, UniProt P11802)
# Sequence (P11802 whole entry): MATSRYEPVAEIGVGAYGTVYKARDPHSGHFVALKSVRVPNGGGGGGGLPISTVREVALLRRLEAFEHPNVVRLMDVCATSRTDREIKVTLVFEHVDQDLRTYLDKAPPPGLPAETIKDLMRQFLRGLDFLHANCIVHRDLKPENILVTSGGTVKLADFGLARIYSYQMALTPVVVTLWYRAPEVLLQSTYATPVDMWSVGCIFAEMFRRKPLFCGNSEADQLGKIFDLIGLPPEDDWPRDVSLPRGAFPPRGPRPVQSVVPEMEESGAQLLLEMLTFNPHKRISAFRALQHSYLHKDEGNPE
observation type: IC50 (µM)

[[record]]
structure_string = "Nc1nc2ccc(C(=O)c3c(F)cccc3Cl)cn2c1C(=O)c1c(F)cccc1F"
result_number = 0.81


(a) Nc1nc2ccc(C(=O)c3c(F)cccc3F)cn2c1C(=S)c1c(F)cccc1F
(b) NC(=O)c1cc(F)c(C(=O)c2c(N)nc3ccc(C(=O)c4c(Cl)cccc4Cl)cn23)c(F)c1
Inquiry: Parameter check: reported IC50 is higher for which label, a or b ? Answer by quoting the chosen item's label.
Reply text: b
